Each recorded value in this set is attributed to ChEMBL document CHEMBL5614367.

- Test system: U-266
- ASSAY_SUMMARY: cells
- Assay type: functional, cell-based
- TEST_PARAMETERS: Homo sapiens, U-266, 72 h
- Description: Antiproliferative activity against human U-266 cells assessed as inhibition of cell growth measured after 72 hrs by CCK-8 assay
PROPERTY: pIC50
// pIC50: -log10(molar conc.)

# pIC50 of COc1cc(Nc2nc(N3CCN(c4ncc(C(=O)NO)cn4)CC3)ncc2Cl)cc(OC)c1 = 6.55

###

- EXPERIMENTAL_SYSTEM: Protein deacetylase HDAC6 (Homo sapiens, UniProt Q9UBN7)
- ASSAY_SUMMARY: Inhibition of HDAC6 (unknown origin) using ZMAL (Z-Lys(Ac)-AMC as fluorogenic substrate pre-incubated for 15 mins followed by susbtrate addition and measured for 45 mins by fluorescence based analysis
PROPERTY: pIC50
The quantity pIC50 is defined as the negative base-10 logarithm of the molar concentration.

pIC50 value, target or system Protein deacetylase HDAC6 (Homo sapiens, UniProt Q9UBN7), for Cc1nc(C)c(C(=O)Nc2cccc(C(=O)NO)c2)nc1C : 6.77

###

- EXPERIMENTAL_SYSTEM: Histone deacetylase 2 (Homo sapiens)
- Sequence (Q92769 whole entry): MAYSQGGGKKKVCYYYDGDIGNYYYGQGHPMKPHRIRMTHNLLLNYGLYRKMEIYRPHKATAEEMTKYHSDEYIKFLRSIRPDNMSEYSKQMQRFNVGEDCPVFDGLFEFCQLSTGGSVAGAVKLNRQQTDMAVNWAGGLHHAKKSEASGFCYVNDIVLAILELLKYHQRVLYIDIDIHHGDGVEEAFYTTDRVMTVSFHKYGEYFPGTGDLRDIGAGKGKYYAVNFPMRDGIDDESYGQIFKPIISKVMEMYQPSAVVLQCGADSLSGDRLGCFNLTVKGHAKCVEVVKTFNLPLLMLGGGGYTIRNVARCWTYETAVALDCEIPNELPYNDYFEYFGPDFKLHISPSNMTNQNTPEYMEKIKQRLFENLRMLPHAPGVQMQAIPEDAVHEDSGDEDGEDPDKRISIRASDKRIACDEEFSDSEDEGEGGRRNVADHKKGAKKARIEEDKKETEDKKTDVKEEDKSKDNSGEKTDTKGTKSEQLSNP
- ASSAY_SUMMARY: Inhibition of human HDAC2 by colorimetric ELISA assay
PROPERTY: IC50 (nM)
Use nM as the unit, but write only the number.

Considering COc1cc(/C=C/C(=O)c2ccc(OCCCCCC(=O)NO)cc2)cc(OC)c1OC , its IC50 with Histone deacetylase 2 (Homo sapiens) was recorded as 60

###

- EXPERIMENTAL_SYSTEM: Protein deacetylase HDAC6 (Homo sapiens)
- Sequence (Q9UBN7 whole entry): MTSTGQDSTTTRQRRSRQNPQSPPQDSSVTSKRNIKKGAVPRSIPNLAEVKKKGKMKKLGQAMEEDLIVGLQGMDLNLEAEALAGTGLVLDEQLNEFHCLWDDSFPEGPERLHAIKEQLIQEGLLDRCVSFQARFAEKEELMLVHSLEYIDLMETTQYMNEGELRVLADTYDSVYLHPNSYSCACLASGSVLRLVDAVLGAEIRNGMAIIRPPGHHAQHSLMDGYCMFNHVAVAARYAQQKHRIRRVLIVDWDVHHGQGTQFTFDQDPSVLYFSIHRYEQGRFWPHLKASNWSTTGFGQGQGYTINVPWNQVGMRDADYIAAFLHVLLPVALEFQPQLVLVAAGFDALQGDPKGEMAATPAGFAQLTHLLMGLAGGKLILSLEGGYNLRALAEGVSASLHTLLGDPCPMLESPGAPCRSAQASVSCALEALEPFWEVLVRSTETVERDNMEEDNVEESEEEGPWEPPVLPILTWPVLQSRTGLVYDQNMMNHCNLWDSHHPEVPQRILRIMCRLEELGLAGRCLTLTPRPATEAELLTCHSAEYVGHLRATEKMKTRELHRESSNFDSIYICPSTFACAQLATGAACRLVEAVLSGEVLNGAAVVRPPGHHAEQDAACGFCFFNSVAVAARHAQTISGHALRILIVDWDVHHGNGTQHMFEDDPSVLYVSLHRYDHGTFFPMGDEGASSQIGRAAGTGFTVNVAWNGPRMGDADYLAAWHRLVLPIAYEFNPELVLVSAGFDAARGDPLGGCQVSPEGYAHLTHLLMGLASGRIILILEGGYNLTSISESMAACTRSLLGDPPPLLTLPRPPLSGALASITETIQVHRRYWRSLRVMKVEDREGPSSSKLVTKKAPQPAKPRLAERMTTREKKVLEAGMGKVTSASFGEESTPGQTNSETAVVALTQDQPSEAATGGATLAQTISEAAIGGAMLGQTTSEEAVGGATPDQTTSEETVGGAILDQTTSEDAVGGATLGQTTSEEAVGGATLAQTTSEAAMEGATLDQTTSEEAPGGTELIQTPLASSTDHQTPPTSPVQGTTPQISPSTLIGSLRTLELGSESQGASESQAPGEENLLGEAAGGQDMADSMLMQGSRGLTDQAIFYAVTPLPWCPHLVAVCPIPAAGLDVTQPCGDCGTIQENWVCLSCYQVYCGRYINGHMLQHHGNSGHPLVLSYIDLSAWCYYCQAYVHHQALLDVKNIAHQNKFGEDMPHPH
- ASSAY_SUMMARY: Inhibition of human recombinant HDAC6 using Fluor-de-Lys deacetylase as substrate by Spectrofluorimetry
PROPERTY: pIC50
Note on units: pIC50 is unitless, being -log10 of a concentration expressed in mol/L.

The recorded pIC50 for entry O=C(NO)c1ccc(CNc2cccc3cc(-c4ccncc4)cnc23)cc1 equals 8.09
